Values were extracted from paper PMC8836147.

# Assay Procedure: MTT cytotoxicity assay
# Format: cell-based
# Applied Conditions: human, L-02 normal liver cells, 100 μg/mL, L-02 cells
# Description: The human liver L-02 cells were obtained from the biology laboratory in Key Laboratory of Chemistry for Natural Products of Guizhou Province and Chinese Academy of Sciences (Guiyang, China). […] The effect of some compounds on cell viability was determined with the MTT assay according to the previously published literature. […]
Items are presented alongside their recorded cytotoxicity at 48 h, 100 μg/mL.
Numbers only here, please. The scale is %.

O=C(NCCc1ccccn1)c1nc(-c2ccccc2)no1 [Compound F1]
10.9

[ask] Entry O=C(NCCc1ccccn1)c1nc(-c2ccc(Cl)cc2)no1 [Compound F9] : reported cytotoxicity at 48 h, 100 μg/mL = ?
[reply] 7.1

[ask] Entry O=C(NCc1ccc(F)cc1F)c1nc(-c2ccccc2)no1 [Compound F3] : reported cytotoxicity at 48 h, 100 μg/mL = ?
[reply] 17

[ask] Entry O=C(NCCc1ncc(C(F)(F)F)cc1Cl)c1ccccc1C(F)(F)F [Fluopyram, fluopyram, reference compound] : reported cytotoxicity at 48 h, 100 μg/mL = ?
[reply] 40.1

[ask] Entry O=C(NCCc1ncc(C(F)(F)F)cc1Cl)c1nc(-c2cccs2)no1 [Compound F14] : reported cytotoxicity at 48 h, 100 μg/mL = ?
[reply] 21.4

[ask] Entry Cc1nc(C(F)(F)F)c(C(=O)Nc2c(Br)cc(OC(F)(F)F)cc2Br)s1 [Thifluzamide, thifluzamide, reference compound] : reported cytotoxicity at 48 h, 100 μg/mL = ?
[reply] 33.7

* * *

Items are presented alongside their recorded cytotoxicity at 48 h, 50 μg/mL.
# Assay Procedure: MTT cytotoxicity assay
# Format: cell-based
# Applied Conditions: human, L-02 normal liver cells, 50 μg/mL, L-02 cells
Numbers only here, please. The scale is %.

Below: 3 molecules and their reported cytotoxicity at 48 h, 50 μg/mL.
O=C(NCc1ccc(F)cc1F)c1nc(-c2ccccc2)no1
7.5
Cc1nc(C(F)(F)F)c(C(=O)Nc2c(Br)cc(OC(F)(F)F)cc2Br)s1 [Thifluzamide, thifluzamide, reference compound]
33.3
O=C(NCCc1ncc(C(F)(F)F)cc1Cl)c1ccccc1C(F)(F)F [Fluopyram, fluopyram, reference compound]
3.8

[ask] Entry "O=C(NCCc1ncc(C(F)(F)F)cc1Cl)c1nc(-c2cccs2)no1" : reported cytotoxicity at 48 h, 50 μg/mL = ?
[reply] 18.8

[ask] Entry "O=C(NCCc1ccccn1)c1nc(-c2ccccc2)no1" : reported cytotoxicity at 48 h, 50 μg/mL = ?
[reply] 4.7

[ask] Entry "O=C(NCCc1ccccn1)c1nc(-c2ccc(Cl)cc2)no1" : reported cytotoxicity at 48 h, 50 μg/mL = ?
[reply] -2.5

* * *

# Test system: C. elegans
# Assay Procedure: microbe, parasite or virus in culture
# Applied Conditions: Caenorhabditis elegans, 48 h, read-out: Corrected Mortality Rate ± SD (%) C. elegans
# Method: M. incognita (parasitic on tomato plants), A. besseyi (potato dextrose agar–Botrytis cinerea breeding), B. xylophilus (potato dextrose agar–Botrytis cinerea breeding), and C. elegans (nematode growth medium–inactivated Escherichia coli OP50 cultivation) were provided by the Fine Chemical Research and Development Center of Guizhou University (Guizhou, China). […] The nematicidal activity of the target compounds against four nematodes was determined using 48-well biochemical culture dishes. […]
Property Name: mortality at 50 µg/mL (%)
Numbers only here, please. The scale is %.

[ask] Entry "O=C(NCCc1ccccn1)c1nc(-c2ncc(C(F)(F)F)cc2Cl)no1" : reported mortality at 50 µg/mL = ?
[reply] 32.5

[ask] Entry "O=C(NCc1ccc(F)cc1F)c1nc(-c2ccc(Br)nc2)no1" : reported mortality at 50 µg/mL = ?
[reply] 64.1

[ask] Entry "O=C(NCc1ccc(F)cc1F)c1nc(-c2ccc(Cl)cc2)no1" : reported mortality at 50 µg/mL = ?
[reply] 10.6

* * *

# Tested on: C. elegans
# Assay Procedure: microbe, parasite or virus in culture
# Applied Conditions: Caenorhabditis elegans, 48 h, read-out: Corrected Mortality Rate ± SD (%) C. elegans
Property Name: mortality at 50 µg/mL
Record the result as a number with its unit.

O=C(NCCc1ncc(C(F)(F)F)cc1Cl)c1nc(-c2ccc(Cl)cc2)no1
69.3%

[ask] Entry "O=C(NCc1ccc(F)cc1F)c1nc(-c2ccccc2)no1" : reported mortality at 50 µg/mL = ?
[reply] 100%

[ask] Entry "O=C(NCCc1ccccn1)c1nc(-c2ccccc2)no1" : reported mortality at 50 µg/mL = ?
[reply] 51.3%

[ask] Entry "Cc1ccc(-c2noc(C(=O)NCCc3ccccn3)n2)cc1" : reported mortality at 50 µg/mL = ?
[reply] 67.9%

* * *

Items are presented alongside their recorded mortality at 200 µg/mL.
# Test system: A. besseyi
# Assay Procedure: microbe, parasite or virus in culture
# Applied Conditions: Aphelenchoides besseyi, 48 h, read-out: Corrected Mortality Rate ± SD (%) A. besseyi
Numbers only here, please. The scale is %.

O=C(Nc1ccc(Cl)cc1Cl)c1nc(-c2ccc(Cl)cc2)no1
18.8
O=C(NCCc1ncc(C(F)(F)F)cc1Cl)c1nc(-c2cccs2)no1
27
O=C(NCCc1ccccn1)c1nc(-c2ncc(C(F)(F)F)cc2Cl)no1
13
Cc1ccc(-c2noc(C(=O)Nc3ccc(Cl)cc3Cl)n2)cc1
6.1
Cc1ccc(-c2noc(C(=O)NCCc3ccccn3)n2)cc1
22.5
O=C(NCCc1ncc(C(F)(F)F)cc1Cl)c1nc(-c2ccc(Br)nc2)no1
23

[ask] Entry "Cc1ccc(-c2noc(C(=O)NCCc3ncc(C(F)(F)F)cc3Cl)n2)cc1" : reported mortality at 200 µg/mL = ?
[reply] 29.4

[ask] Entry "O=C(NCc1ccc(F)cc1F)c1nc(-c2ccc(Cl)cc2)no1" : reported mortality at 200 µg/mL = ?
[reply] 19.8

[ask] Entry "O=C(NCCc1ncc(C(F)(F)F)cc1Cl)c1nc(-c2ccc(Cl)cc2)no1" : reported mortality at 200 µg/mL = ?
[reply] 23.6

[ask] Entry "O=C(NCCc1ccccn1)c1nc(-c2ccccc2)no1" : reported mortality at 200 µg/mL = ?
[reply] 6.9

[ask] Entry "O=C(NCc1ccc(F)cc1F)c1nc(-c2ccccc2)no1" : reported mortality at 200 µg/mL = ?
[reply] 20.1

[ask] Entry "O=C(Nc1ccc(Cl)cc1Cl)c1nc(-c2ccc(Br)nc2)no1" : reported mortality at 200 µg/mL = ?
[reply] 26.4

[ask] Entry "O=C(NCCc1ccccn1)c1nc(-c2ccc(Br)nc2)no1" : reported mortality at 200 µg/mL = ?
[reply] 20.2

[ask] Entry "O=C(Nc1ccc(Cl)cc1Cl)c1nc(-c2ncc(C(F)(F)F)cc2Cl)no1" : reported mortality at 200 µg/mL = ?
[reply] 23.4

[ask] Entry O=C(NCCc1ncc(C(F)(F)F)cc1Cl)c1ccccc1C(F)(F)F [Fluopyram, fluopyram, reference compound] : reported mortality at 200 µg/mL = ?
[reply] 100

[ask] Entry "O=C(NCCc1ncc(C(F)(F)F)cc1Cl)c1nc(-c2ccccc2)no1" : reported mortality at 200 µg/mL = ?
[reply] 15.1

[ask] Entry "Cc1ccc(-c2noc(C(=O)NCc3ccc(F)cc3F)n2)cc1" : reported mortality at 200 µg/mL = ?
[reply] 12.2

[ask] Entry "O=C(NCc1ccc(F)cc1F)c1nc(-c2ncc(C(F)(F)F)cc2Cl)no1" : reported mortality at 200 µg/mL = ?
[reply] 21.5

* * *

# Tested on: C. elegans
# Assay Procedure: microbe, parasite or virus in culture
# Applied Conditions: Caenorhabditis elegans, 48 h, read-out: Corrected Mortality Rate ± SD (%) C. elegans
Items are presented alongside their recorded mortality at 50 µg/mL.
Numbers only here, please. The scale is %.

O=C(Nc1ccc(Cl)cc1Cl)c1nc(-c2ccc(Cl)cc2)no1
8.6
O=C(Nc1ccc(Cl)cc1Cl)c1nc(-c2ccc(Br)nc2)no1
81.4
O=C(NCCc1ccccn1)c1nc(-c2ccc(Cl)cc2)no1
62.1
O=C(Nc1ccc(Cl)cc1Cl)c1nc(-c2ncc(C(F)(F)F)cc2Cl)no1
9.6
O=C(NCCc1ncc(C(F)(F)F)cc1Cl)c1nc(-c2cccs2)no1
70
Cc1ccc(-c2noc(C(=O)NCc3ccc(F)cc3F)n2)cc1
68.2
c1ccc(-c2noc(-c3cccs3)n2)cc1 [Tioxazafen, tioxazafen, reference compound]
90.4

Now, please, on to the next compound.
[ask] Entry O=C(NCCc1ncc(C(F)(F)F)cc1Cl)c1ccccc1C(F)(F)F [Fluopyram, fluopyram, reference compound] : reported mortality at 50 µg/mL = ?
[reply] 100

* * *

# Test system: B. xylophilus
# Assay Procedure: microbe, parasite or virus in culture
# Applied Conditions: Bursaphelenchus xylophilus, 48 h, read-out: Corrected Mortality Rate ± SD (%) B. xylophilus
Property Name: mortality at 200 µg/mL (%)
Numbers only here, please. The scale is %.

Below: 3 compounds and their reported mortality at 200 µg/mL.
O=C(NCCc1ncc(C(F)(F)F)cc1Cl)c1nc(-c2ccccc2)no1
5.5
CCOP(=O)(SC(C)CC)N1CCSC1=O (centres unmarked) [Fosthiazate, fosthiazate, reference compound]
72.4
Cc1ccc(-c2noc(C(=O)NCc3ccc(F)cc3F)n2)cc1
28.1

[ask] Entry "O=C(NCc1ccc(F)cc1F)c1nc(-c2ncc(C(F)(F)F)cc2Cl)no1" : reported mortality at 200 µg/mL = ?
[reply] 20.3

[ask] Entry "O=C(NCc1ccc(F)cc1F)c1nc(-c2ccc(Cl)cc2)no1" : reported mortality at 200 µg/mL = ?
[reply] 23.2

[ask] Entry "Cc1ccc(-c2noc(C(=O)Nc3ccc(Cl)cc3Cl)n2)cc1" : reported mortality at 200 µg/mL = ?
[reply] 18.1
